Source of measurements: ChEMBL document CHEMBL1154668

Biological target: Cyclin-dependent kinase 5/CDK5 activator 1 (Homo sapiens, UniProt Q00535)
Sequence (Q00535 whole entry): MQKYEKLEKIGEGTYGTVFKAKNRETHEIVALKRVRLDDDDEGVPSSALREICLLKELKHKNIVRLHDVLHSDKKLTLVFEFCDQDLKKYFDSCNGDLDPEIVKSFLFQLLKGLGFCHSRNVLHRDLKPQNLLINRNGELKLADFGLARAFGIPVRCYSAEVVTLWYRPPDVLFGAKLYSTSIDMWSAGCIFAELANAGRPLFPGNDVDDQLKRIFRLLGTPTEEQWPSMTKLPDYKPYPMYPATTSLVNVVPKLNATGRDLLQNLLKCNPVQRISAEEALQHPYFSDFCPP
Sequence (Q15078 whole entry, further chain): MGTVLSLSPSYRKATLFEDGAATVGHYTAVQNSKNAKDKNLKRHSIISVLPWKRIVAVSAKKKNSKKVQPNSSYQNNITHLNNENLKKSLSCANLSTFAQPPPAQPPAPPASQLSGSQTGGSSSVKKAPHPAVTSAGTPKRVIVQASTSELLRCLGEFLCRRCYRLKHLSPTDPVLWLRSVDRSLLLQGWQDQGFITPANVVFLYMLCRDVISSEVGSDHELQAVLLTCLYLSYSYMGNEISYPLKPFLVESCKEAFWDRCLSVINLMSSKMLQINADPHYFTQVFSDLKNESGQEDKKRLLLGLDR
Assay: Inhibition of human CDK5/p25 assessed as histone h1 phosphorylation in presence of ATP
pIC50: −log10 of the molar value.
TEST_READOUT: pIC50

Worked examples, 3 molecules total:
MOLECULE	pIC50
CCOC(=O)c1cc(-c2csc(-c3ccnc(N)c3)n2)c(=O)[nH]c1C	7.70
CCOC(=O)c1cc(-c2csc(-c3ccncc3)n2)c(=O)[nH]c1C1CC1	6.70
CC(C)c1[nH]c(=O)c(-c2csc(-c3ccncc3)n2)cc1C(=O)OC1CCCN(C)C1 (configuration not stated)	7.14

a = CCOC(=O)c1cc(-c2csc(-c3ccncc3)n2)c(=O)[nH]c1CC
b = CCN(CC)CC(C)OC(=O)c1cc(-c2csc(-c3ccncc3)n2)c(=O)[nH]c1C(C)C (configuration not stated)
Exercise: Higher pIC50: a or b ? Which one? Tell me its label.
Key: a
(a: 8.39, b: 7.44)

1 = CCOC(=O)c1cc(-c2csc(-c3ccnc(NC)c3)n2)c(=O)[nH]c1C(C)C
2 = CCOC(=O)c1cc(-c2csc(-c3ccnc(NCC(C)C)c3)n2)c(=O)[nH]c1C
3 = CCN(CC)CCCOC(=O)c1cc(-c2csc(-c3ccncc3)n2)c(=O)[nH]c1C(C)C
Exercise: Order field: pIC50 | Direction: descending (largest first) Ranked list of labels, please, in the requested order.
Key: 2, 1, 3
(2: 7.85, 1: 7.55, 3: 7.33)

a = CCOC(=O)c1cc(-c2csc(-c3ccncc3)n2)c(=O)[nH]c1C
b = CCOC(=O)c1cc(-c2csc(CS(=O)(=O)c3ccccc3)n2)c(=O)[nH]c1COCc1ccccc1
Exercise: Between a and b , whose measured pIC50 reads higher? // output: label of the selected item
Key: b
(b: 8.28, a: 6.88)

A = CCOC(=O)c1cc(-c2csc(-c3ccncc3)n2)c(=O)[nH]c1C(C)C
B = CCN(CC)CCOC(=O)c1cc(-c2csc(-c3ccncc3)n2)c(=O)[nH]c1C(C)C
C = CCOC(=O)c1cc(-c2csc(CS(=O)(=O)c3ccccc3)n2)c(=O)[nH]c1C
D = CCOC(=O)c1cc(-c2csc(-c3ccnc(OC)c3)n2)c(=O)[nH]c1C(C)C
Exercise: Order the records so the highest pIC50 appears first and the lowest last. Provide your answer as the labels ordered per the instruction.
Key: C, B, A, D

###

Molecular target: Cyclin-dependent kinase 5/CDK5 activator 1 (Homo sapiens)
Test: Inhibition of human CDK5/p25 assessed as histone h1 phosphorylation in presence of ATP
pIC50: −log10 of the molar value.
TEST_READOUT: pIC50

ENTRY_SMILES	SYSTEM	TEST_READOUT	VAL
CC(C)c1[nH]c(=O)c(-c2csc(-c3ccncc3)n2)cc1C(=O)OCCN1CCCC1	Cyclin-dependent kinase 5/CDK5 activator 1 (Homo sapiens)	pIC50	6.95
CCOC(=O)c1cc(-c2csc(-c3ccnc(Cl)c3)n2)c(=O)[nH]c1C	Cyclin-dependent kinase 5/CDK5 activator 1 (Homo sapiens)	pIC50	6.80
CC(C)c1[nH]c(=O)c(-c2csc(-c3ccncc3)n2)cc1C(=O)OCCc1ccccc1	Cyclin-dependent kinase 5/CDK5 activator 1 (Homo sapiens)	pIC50	6.92
